- Target Or Test System: T1, P66 (rabbit ANGPTL7-his) (rabbit, UniProt G1T4P1 27-344)
- T1 construct: mature; also called rabbit ANGPTL7 protein
- T1 sequence: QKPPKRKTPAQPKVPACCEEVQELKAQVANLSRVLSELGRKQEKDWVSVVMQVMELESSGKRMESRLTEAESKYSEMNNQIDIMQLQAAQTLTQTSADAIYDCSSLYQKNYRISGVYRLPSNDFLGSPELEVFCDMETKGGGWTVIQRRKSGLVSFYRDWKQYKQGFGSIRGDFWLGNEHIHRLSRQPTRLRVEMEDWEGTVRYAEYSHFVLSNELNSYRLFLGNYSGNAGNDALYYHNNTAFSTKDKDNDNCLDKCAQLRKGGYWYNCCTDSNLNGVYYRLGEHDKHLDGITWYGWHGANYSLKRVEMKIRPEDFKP
- Procedure Summary: BLI Octet HTX; IgG on AHC sensor; P66 at 200 nM; 1:1 fit
Listing: Response of selected binders
Measured Metric: Response (nm)

# Binder, Unit Descriptor, Measured Result
data = [
    ("ATX-P-448 (antibody, human IgG1, kappa, N297A, V domains shown, Full chains (VH + hIgG1-Agly-Fc)) VH: QVQLVESGGGVVQPGRSLRLSCAASGFPFSSYGMHWVRQAPGKGLEWVAVMSYDGINGYYADSVKGRFTISRDNSKNTLYLQMNSLRAEDTAVYYCARLVYADDAFDIWGQGTTVTVSS VL: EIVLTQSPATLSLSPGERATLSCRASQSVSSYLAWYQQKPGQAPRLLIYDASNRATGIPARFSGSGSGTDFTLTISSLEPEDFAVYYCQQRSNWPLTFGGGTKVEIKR", "nm", 0.75),
    ("ATX-P-427 (antibody, human IgG1, kappa, N297A, V domains shown, Full chains (VH + hIgG1-Agly-Fc)) VH: EVQLVESGGGVVRPGGSLRLSCAASGFSFDDYGMSWVRQVPGKGLEWVSGINWNGGSTGYADSVKGRFTISRDNAKNSLYLQMSSLRAEDTALYYCASYSGSFRDAFDIWGQGTMVTVSS VL: AIQMTQSPSSLSASVGDRVTITCRASQGIRNDLGWYQQKPGKAPKLLIYAASSLQSGVPSRFSGSGSGTDFTLTISSLQPEDFATYYCLQDYNYPYTFGQGTKLEIKR", "nm", 0.93),
    ("ATX-P-449 (antibody, human IgG1, kappa, N297A, V domains shown, Full chains (VH + hIgG1-Agly-Fc)) VH: QVQLVESGGGVVQPGRSLRLSCAASGFAFSSYGMHWVRQAPGKGLEWVAVISYYGSNKYYADSVKGRFTISRDNSKNTLYLQMNSLRAEDTAVYHCARGITMDVWGKGTTVTVSS VL: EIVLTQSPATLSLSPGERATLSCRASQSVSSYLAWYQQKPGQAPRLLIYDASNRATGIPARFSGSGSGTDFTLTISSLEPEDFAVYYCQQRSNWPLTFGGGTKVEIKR", "nm", 0.74),
    ("ATX-P-435 (antibody, human IgG1, kappa, N297A, V domains shown, Full chains (VH + hIgG1-Agly-Fc)) VH: QLQLQESGPGLVKPSETLSLTCTVSGGSISSSSSYWGWIRQPPGKGLEWIGSIYYSGSTYSNPSLKSRVTISVDTSKNQFSLKLSSVTAADTAVYYCARQYISGTEYFQYWGQGTLVTVSS VL: EIVLTQSPATLSLSPGERATLSCRASQSVSNYLAWYQQKPGQAPRLLIYDASNRATGIPARFSGSGSGTDFTLTISSLEPEDFAVYYCQQRSNWPSFGQGTRLEIKR", "nm", 0.01),
]
